B1: Osa-1-4 twister ribozyme (parent)
chain: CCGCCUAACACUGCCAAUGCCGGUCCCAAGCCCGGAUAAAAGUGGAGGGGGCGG

variants of: B1; assay: self-cleavage, relative activity (ratio to wild type); higher = more cleavage; co-transcriptional
The reader will find reported self-cleavage values listed item by item below.
quantity-name: self-cleavage

| mutation-string | quantity-name | value |
| --- | --- | --- |
| A38U C20G | self-cleavage | 0.15 |
| C21U G53A | self-cleavage | 0.64 |
| G42C U43C | self-cleavage | 0.11 |
| G47C G50C | self-cleavage | 0.08 |
| G54A U43C | self-cleavage | 0.58 |
| C33A G49A | self-cleavage | 0.05 |
| A41G G50A | self-cleavage | 0.34 |
| G47U G54U | self-cleavage | 0.46 |
| C11G C25A | self-cleavage | 0.04 |
| C15G G19A | self-cleavage | 0.95 |
| G30C G34A | self-cleavage | 0.07 |
| C15A G34U | self-cleavage | 0.14 |
| C31A C9G | self-cleavage | 0.04 |
| A46U G35C | self-cleavage | 0.05 |
| C14G C32U | self-cleavage | 0.04 |
| A46G G13U | self-cleavage | 0.01 |
| C11G G47A | self-cleavage | 0.04 |
| A7U C32A | self-cleavage | 0.03 |
| A38U C33U | self-cleavage | 0.79 |
| A46U G22C | self-cleavage | 0.03 |
| C26A G53U | self-cleavage | 0.04 |
| C27U G19U | self-cleavage | 0.05 |
| C32U G51C | self-cleavage | 0.05 |
| A29U U12A | self-cleavage | 0.08 |
| A46U A7U | self-cleavage | 0.04 |
| A17U G48U | self-cleavage | 0.08 |
| G47C U43A | self-cleavage | 0.1 |
| A16G C31U | self-cleavage | 0.94 |
| C14G G34A | self-cleavage | 0.13 |
| C15A U12A | self-cleavage | 0.11 |
| A36G C25U | self-cleavage | 0.94 |
| U37C U43G | self-cleavage | 0.66 |
| C32U G48C | self-cleavage | 0.03 |
| C14A G53U | self-cleavage | 0.05 |
| A16U U18G | self-cleavage | 0.66 |
| A17U C52A | self-cleavage | 1.02 |
| G47A U37G | self-cleavage | 0.62 |
| G42C U43G | self-cleavage | 0.09 |
| C14A G44C | self-cleavage | 0.06 |
| A36C C52U | self-cleavage | 0.82 |
| A40U C14U | self-cleavage | 0.11 |
| G34U G51C | self-cleavage | 0.05 |
| G47A G50A | self-cleavage | 0.36 |
| G45A U12A | self-cleavage | 0.09 |
| A29C C9G | self-cleavage | 0.05 |
| A10U A46U | self-cleavage | 0.03 |
